System: c-Abl (mouse)
Assay: phosphorylation enrichment, bacterial display (enrichment ratio); higher = better substrate or ligand; peptides without Tyr show the background;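 also: 11-residue human phosphosite peptides and single-mutation variants displayed on the E. coli surface, counted by deep sequencing, each peptide's frequency after selection divided by its frequency in the unselected input library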;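 also: frequency after pTyr selection over input frequency; kinase dosed for 20-30% of maximal phosphorylation in three min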
List of phosphorylation enrichment values.
Format: numeric value only, no unit, no commentary.

Below are worked cases with known answers.
[
  {
    "CHAIN": "GIVKAYFVRAR [AIPL1_Y267_YF]",
    "phosphorylation enrichment": 0.669
  },
  {
    "CHAIN": "DCVRMYELVHR [GLE1_Y135_G130D]",
    "phosphorylation enrichment": 1.03
  },
  {
    "CHAIN": "KILGRYYETGS [PAX2_Y72]",
    "phosphorylation enrichment": 0.636
  },
  {
    "CHAIN": "AFDNLYFWDQD [ERBB2_Y1221_YF]",
    "phosphorylation enrichment": 0.981
  },
  {
    "CHAIN": "LHSDHYSPSGR [TMPRSS12_Y23_Y19H]",
    "phosphorylation enrichment": 0.569
  }
]

Request: I am curious: what phosphorylation enrichment value has been reported for ALKWGYTVKGI [OAT_Y158_R154L] ?
Result: 0.659

Request: I am curious: what phosphorylation enrichment value has been reported for LNCDRYSVGLL [PDE6A_Y275] ?
Result: 0.929

---

Target: FGFR1 (UniProt P11362)
Sequence (P11362 whole entry, looked up): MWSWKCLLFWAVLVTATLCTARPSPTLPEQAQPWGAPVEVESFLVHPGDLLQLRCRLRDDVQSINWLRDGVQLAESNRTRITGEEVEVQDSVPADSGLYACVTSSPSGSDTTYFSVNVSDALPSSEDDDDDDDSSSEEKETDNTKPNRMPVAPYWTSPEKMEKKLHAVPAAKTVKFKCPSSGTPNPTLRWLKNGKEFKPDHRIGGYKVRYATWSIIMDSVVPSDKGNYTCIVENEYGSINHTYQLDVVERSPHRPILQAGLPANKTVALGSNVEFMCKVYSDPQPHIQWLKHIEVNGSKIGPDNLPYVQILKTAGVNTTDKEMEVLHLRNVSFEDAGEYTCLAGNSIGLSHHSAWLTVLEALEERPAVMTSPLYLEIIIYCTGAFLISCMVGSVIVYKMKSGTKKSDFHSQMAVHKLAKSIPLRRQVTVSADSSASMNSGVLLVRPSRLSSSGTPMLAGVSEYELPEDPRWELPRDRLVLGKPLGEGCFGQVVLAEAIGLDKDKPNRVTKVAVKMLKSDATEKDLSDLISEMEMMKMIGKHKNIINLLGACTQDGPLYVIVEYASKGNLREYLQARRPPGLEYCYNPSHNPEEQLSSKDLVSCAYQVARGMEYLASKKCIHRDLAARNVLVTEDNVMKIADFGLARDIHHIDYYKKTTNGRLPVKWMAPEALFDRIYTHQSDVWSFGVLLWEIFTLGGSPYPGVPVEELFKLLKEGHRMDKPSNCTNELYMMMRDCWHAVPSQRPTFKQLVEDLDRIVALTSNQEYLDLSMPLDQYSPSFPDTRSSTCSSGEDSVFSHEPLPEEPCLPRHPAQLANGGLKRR
Assay: phosphorylation enrichment, bacterial display (enrichment ratio); higher = better substrate or ligand; peptides without Tyr show the background
Label true (1) when phosphorylation enrichment >= 0.7; otherwise false (0).

Below are worked cases with known answers.
[
  {
    "CHAIN": "NHYKIYNLYAE [PTEN_Y68_C71Y]",
    "LABEL_VALUE": "false (0)"
  },
  {
    "CHAIN": "NYYDTCIKTCL [IQGAP2_Y1445_Y1445C]",
    "LABEL_VALUE": "true (1)"
  },
  {
    "CHAIN": "EQFELYCEMGS [CBL_Y371_YF]",
    "LABEL_VALUE": "true (1)"
  },
  {
    "CHAIN": "MSRDIYSTDYY [NTRK1_Y676]",
    "LABEL_VALUE": "true (1)"
  },
  {
    "CHAIN": "AALVQYFMEHH [PTPN11_Y80_E76A_YF]",
    "LABEL_VALUE": "false (0)"
  },
  {
    "CHAIN": "EYLQKYKGFKI [SYNE1_Y6953]",
    "LABEL_VALUE": "false (0)"
  },
  {
    "CHAIN": "HKNNNYEPNLF [BRCA2_Y57]",
    "LABEL_VALUE": "true (1)"
  },
  {
    "CHAIN": "LKFAIYFEVRE [LAMA2_Y1258_A1261V_YF]",
    "LABEL_VALUE": "false (0)"
  }
]

Request: Check the entry LSALDYKIFFF [WDPCP_Y210_YF] : does phosphorylation enrichment equal or exceed 0.7?
Result: true (1)

Request: Check the entry RRVLVYVGRGA [QDPR_Y16_G17V] : does phosphorylation enrichment equal or exceed 0.7?
Result: true (1)

Request: Check the entry LWPIWYRCHRP [MRGPRX1_Y130] : does phosphorylation enrichment equal or exceed 0.7?
Result: true (1)

Request: Check the entry KGVDRYNPENL [EIF3K_Y21_I18V] : does phosphorylation enrichment equal or exceed 0.7?
Result: false (0)

Request: Check the entry AIGFEYSEINI [SIGLEC12_Y588_YF] : does phosphorylation enrichment equal or exceed 0.7?
Result: true (1)

Request: Check the entry RDSQLYAVDFE [MRPS34_Y34_YF] : does phosphorylation enrichment equal or exceed 0.7?
Result: false (0)

The measured values listed here are drawn from the supplement of paper PMC10065799.
